# testMethodNotes: Stability in tetrahydrofuran (endoperoxide formation by proton NMR)
# Assay type: physicochemical
# testContext: increase of endoperoxide over 120 hours in tetrahydrofuran-d8, protected from light, room temperature
measuredQuantity: Mole percent increase (mole percent)

>>> quantitativeresult("C[Si](C)(C)c1ccc(-c2c3cc4ccccc4cc3c(-c3ccc([Si](C)(C)C)s3)c3cc4ccccc4cc23)s1 [Example 3]")
2.80

[1] c1csc(-c2ccc(-c3c4cc5ccccc5cc4c(-c4ccc(-c5cccs5)s4)c4cc5ccccc5cc34)s2)c1 [Example 4]
[2] c1csc(-c2c3cc4ccccc4cc3c(-c3cccs3)c3cc4ccccc4cc23)c1 [Example 1, 2-(13-thien-2-ylpentacene-6-yl)thiophene]
[3] CCCCCCc1ccc(-c2c3cc4ccccc4cc3c(-c3ccc(CCCCCC)s3)c3cc4ccccc4cc23)s1 [Example 2]
Sort entries by Mole percent increase from minimum to maximum value. Kindly provide the labels arranged according to the requested ordering.
1, 3, 2
(1: 3.63 mole percent, 3: 7.80 mole percent, 2: 15.60 mole percent)

---

# testMethodNotes: Stability in tetrahydrofuran (endoperoxide formation by proton NMR)
# Type: physicochemical
# testContext: endoperoxide in tetrahydrofuran-d8 after 120 hours, protected from light, room temperature
# Protocol: The solution stabilities of the compounds of Examples 1 to 4 were determined by proton NMR analysis of saturated solutions of the corresponding compounds in tetrahydrofuran-d8. […]
measuredQuantity: Mole percent impurity—120 hours (mole percent)

>>> quantitativeresult("C[Si](C)(C)c1ccc(-c2c3cc4ccccc4cc3c(-c3ccc([Si](C)(C)C)s3)c3cc4ccccc4cc23)s1")
4.76

[1] c1csc(-c2c3cc4ccccc4cc3c(-c3cccs3)c3cc4ccccc4cc23)c1
[2] c1csc(-c2ccc(-c3c4cc5ccccc5cc4c(-c4ccc(-c5cccs5)s4)c4cc5ccccc5cc34)s2)c1
[3] CCCCCCc1ccc(-c2c3cc4ccccc4cc3c(-c3ccc(CCCCCC)s3)c3cc4ccccc4cc23)s1
Order these by Mole percent impurity—120 hours, descending, and give the full ranking. Give your ranking as a list of the labels in the requested order.
1, 3, 2

---

# testMethodNotes: Solubility in tetrahydrofuran-d8 by proton NMR of saturated solutions
# Type: physicochemical
# testContext: saturated solution in tetrahydrofuran-d8, mixed 30 minutes, filtered
measuredQuantity: Weight percent in THF (weight percent)

>>> quantitativeresult("c1csc(-c2c3cc4ccccc4cc3c(-c3cccs3)c3cc4ccccc4cc23)c1 [Example 1, 2-(13-thien-2-ylpentacene-6-yl)thiophene]")
0.327
>>> quantitativeresult("C[Si](C)(C)c1ccc(-c2c3cc4ccccc4cc3c(-c3ccc([Si](C)(C)C)s3)c3cc4ccccc4cc23)s1 [Example 3]")
2.34

[1] CCCCCCc1ccc(-c2c3cc4ccccc4cc3c(-c3ccc(CCCCCC)s3)c3cc4ccccc4cc23)s1 [Example 2]
[2] c1csc(-c2ccc(-c3c4cc5ccccc5cc4c(-c4ccc(-c5cccs5)s4)c4cc5ccccc5cc34)s2)c1 [Example 4]
Higher Weight percent in THF between 1 and 2 ? Answer format: the label of the selected item.
1

Sourced from patent US7319153B2
